Experiment: Phase I single-dose open-label pharmacokinetic study in participants with normal hepatic function and varying degrees of hepatic impairment
Format: in vivo, human
Details: human, plasma, po, 200 mg; single oral 200 mg belumosudil, fed; normal hepatic function; geometric mean (CV %)
MEASURED_ENDPOINT: half-life (h)
Quick note: give the figure in h, leave out the unit.

Lookup: Field request: half-life | item: `CC(C)NC(=O)COc1cccc(-c2nc(Nc3ccc4[nH]ncc4c3)c3ccccc3n2)c1`
Found: 8.58
